The measurements presented in this section are drawn from ChEMBL document CHEMBL1151661.

Recorded Activity values for a group of molecules are listed next.
system: Avian myeloblastosis virus; assay: Inhibition of AMV reverse transcriptase activity assessed as incorporation of dTMP in poly(rA)-oligo(dT) at 1000 uM; parameters: scale not given: the % may be the effect or the level left
Number only, in %; omit the unit.

Consider the following illustrative entries.
O=C(O[C@@H]1O[C@@H]2COC(=O)c3cc(Oc4c(C(=O)O[C@@H]5O[C@@H]6COC(=O)c7cc(O)c(O)c(O)c7-c7c(cc(O)c(O)c7O)C(=O)O[C@H]6[C@H](OC(=O)c6cc(O)c(O)c(O)c6)[C@H]5OC(=O)c5cc(O)c(O)c(O)c5)cc(O)c(O)c4O)c(O)c(O)c3-c3c(cc(O)c(O)c3O)C(=O)O[C@H]2[C@H](OC(=O)c2cc(O)c(O)c(O)c2)[C@H]1OC(=O)c1cc(O)c(O)c(O)c1)c1cc(O)c(O)c(O)c1: 6
O=C(OC[C@H]1O[C@@H](OC(=O)c2cc(O)c(O)c(O)c2)[C@H](OC(=O)c2cc(O)c(O)c(O)c2)[C@@H](OC(=O)c2cc(O)c(O)c(O)c2)[C@@H]1OC(=O)c1cc(O)c(O)c(O)c1)c1cc(O)c(O)c(O)c1: 7

Now look at this one.
Requested read-out: Activity. Entry: O=C[C@H](OC(=O)c1cc(O)c(O)c(O)c1)[C@@H](OC(=O)c1cc(O)c(O)c(O)c1)[C@@H]1OC(=O)c2cc(O)c(O)c(O)c2-c2c(cc(Oc3c(C(=O)O[C@@H](C=O)[C@@H](OC(=O)c4cc(O)c(O)c(O)c4)[C@@H]4OC(=O)c5cc(O)c(O)c(O)c5-c5c(cc(O)c(O)c5O)C(=O)OC[C@H]4O)cc(O)c(O)c3O)c(O)c2O)C(=O)OC[C@H]1O
6
